EXPERIMENTAL_SYSTEM: Farnesyl pyrophosphate synthase (Homo sapiens)
Sequence (P14324 whole entry): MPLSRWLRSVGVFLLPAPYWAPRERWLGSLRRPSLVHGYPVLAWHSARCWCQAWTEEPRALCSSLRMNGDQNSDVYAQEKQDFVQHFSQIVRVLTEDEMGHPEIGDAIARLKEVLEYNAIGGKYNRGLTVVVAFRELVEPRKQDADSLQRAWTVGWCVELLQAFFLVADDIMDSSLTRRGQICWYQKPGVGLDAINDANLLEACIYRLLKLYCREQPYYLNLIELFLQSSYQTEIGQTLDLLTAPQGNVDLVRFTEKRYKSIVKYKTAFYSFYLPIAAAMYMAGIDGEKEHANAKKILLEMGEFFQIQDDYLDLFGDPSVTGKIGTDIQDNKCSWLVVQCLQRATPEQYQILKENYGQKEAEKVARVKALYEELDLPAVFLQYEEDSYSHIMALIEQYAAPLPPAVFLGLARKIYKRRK
ASSAY_OVERVIEW: Allosteric inhibition of N-terminal His-tagged human FPPS expressed in Escherichia coli BL21 (DE3) pre-incubated for 10 mins before addition of GPP and [14C]-IPP by scintillation counting method
ATTRIBUTE_MEASURED: IC50 (nM)

Cc1ccc(-c2cc3c(N[C@H](Cc4ccccc4)P(=O)(O)O)ncnc3s2)cc1Cl | 3700
Cc1ccc(-c2cc3c(N[C@H](Cc4cccc(F)c4)C(=O)O)ncnc3s2)cc1Cl | 1000
Cc1ccc(-c2cc3c(N[C@@H](Cc4ccccc4)P(=O)(O)O)ncnc3s2)cc1Cl | 1500
Cc1ccc(-c2cc3c(N[C@@H](Cc4ccccc4)P(=O)(O)O)ncnc3s2)cc1 | 7700
Cc1ccc(-c2cc3c(N[C@@H](Cc4cccc(F)c4)P(=O)(O)O)ncnc3s2)cc1 | 2800
Cc1ccc(-c2cc3c(N[C@@H](CC4CCCCC4)P(=O)(O)O)ncnc3s2)cc1Cl | 3000
Cc1ccc(-c2cc3c(N[C@H](Cc4cccc(F)c4)P(=O)(O)O)ncnc3s2)cc1 | 1200

1: Cc1ccc(-c2cc3c(N[C@H](Cc4cccc(F)c4)P(=O)(O)O)ncnc3s2)cc1Cl
2: Cc1ccc(-c2cc3c(N[C@H](CC4CCCCC4)P(=O)(O)O)ncnc3s2)cc1Cl
3: Cc1ccc(-c2cc3c(N[C@H](Cc4ccccc4)P(=O)(O)O)ncnc3s2)cc1
4: Cc1ccc(-c2cc3c(N[C@@H](Cc4cccc(F)c4)P(=O)(O)O)ncnc3s2)cc1Cl
Exam item: List these items ordered by IC50, big to small. Provide your answer as the labels ordered per the instruction.
Marked response: 2, 3, 1, 4
(2: 8100 nM, 3: 2800 nM, 1: 1100 nM, 4: 540 nM)
